These data points were gathered from patent US9206167B2.

EXPERIMENTAL_SYSTEM: Dopamine D2 receptor (Rattus norvegicus (Rat), UniProt P61169)
Sequence (P61169 whole entry): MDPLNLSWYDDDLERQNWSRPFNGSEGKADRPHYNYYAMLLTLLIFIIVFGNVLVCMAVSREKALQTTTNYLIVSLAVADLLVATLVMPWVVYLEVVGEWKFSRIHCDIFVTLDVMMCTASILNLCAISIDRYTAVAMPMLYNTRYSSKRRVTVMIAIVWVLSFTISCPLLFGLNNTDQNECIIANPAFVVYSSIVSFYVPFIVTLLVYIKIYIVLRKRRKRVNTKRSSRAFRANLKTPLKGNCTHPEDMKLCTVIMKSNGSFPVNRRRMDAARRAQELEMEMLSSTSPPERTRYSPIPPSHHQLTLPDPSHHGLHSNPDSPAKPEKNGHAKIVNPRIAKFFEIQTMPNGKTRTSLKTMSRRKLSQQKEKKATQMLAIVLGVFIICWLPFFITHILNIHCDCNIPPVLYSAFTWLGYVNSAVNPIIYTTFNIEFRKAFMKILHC
PROTOCOL_DETAILS: Dopamine D2 receptor binding assay ([3H]-raclopride, rat corpus striatum membrane)
MEASUREMENT_PARAMETERS: Ki from IC50 by Cheng-Prussoff formula
Parameter Ki: see the listing below.
The reply should contain only the number, in nM.

INSERT INTO measurements (compound, test_readout, meas_value) VALUES
  ('O=C1NCCc2ccc(OCCCN3CCN(c4cccc5sccc45)CC3)cc21', 'Ki', 1.2),
  ('O=C1CCc2ccc(OCCCN3CCN(c4cccc5sccc45)CC3)cc2N1', 'Ki', 0.4),
  ('CCN1CCc2cc(OCCCN3CCN(c4cccc5sccc45)CC3)ccc2C1=O', 'Ki', 4.9),
  ('O=C1CCc2cc(OCCCN3CCN(c4cccc5sccc45)CC3)cc(F)c2N1', 'Ki', 4.5),
  ('CN1CCc2cc(OCCCN3CCN(c4cccc5sccc45)CC3)ccc2C1=O', 'Ki', 3.5),
  ('O=C1CCc2cc(OCCCCN3CCN(c4cccc5sccc45)CC3)ccc2N1', 'Ki', 1.5),
  ('O=c1c2ccccc2ccn1CCCCN1CCN(c2cccc3sccc23)CC1', 'Ki', 1.2),
  ('O=C1CCc2ccc(OC/C=C/CN3CCN(c4cccc5sccc45)CC3)cc2N1', 'Ki', 0.2);

Q: Could you share which Ki value was measured for O=C1c2ccccc2CCN1CCCCCN1CCN(c2cccc3sccc23)CC1 ?
Result: 5

Q: Could you share which Ki value was measured for O=c1ccc2cc(OCCCCN3CCN(c4cccc5sccc45)CC3)cc(F)c2[nH]1 ?
Result: 2.6

Q: Could you share which Ki value was measured for O=C1CCc2c(cccc2OCCCN2CCN(c3cccc4sccc34)CC2)N1 ?
Result: 3.3

Q: Could you share which Ki value was measured for CC1CC(=O)Nc2cc(OCCCCN3CCN(c4cccc5sccc45)CC3)ccc21 (stereo not drawn) ?
Result: 0.7

Q: Could you share which Ki value was measured for O=c1ccc2ccc(OCCCCN3CCN(c4cccc5sccc45)CC3)cc2[nH]1 ?
Result: 0.2

Q: Could you share which Ki value was measured for O=c1[nH]ccc2ccc(OCCCN3CCN(c4cccc5sccc45)CC3)cc12 ?
Result: 1.6

Q: Could you share which Ki value was measured for O=c1ccc2ccc(OCCCN3CCN(c4cccc5sccc45)CC3)cc2[nH]1 ?
Result: 0.5

Q: Could you share which Ki value was measured for Cc1cc(=O)[nH]c2cc(OCCCCN3CCN(c4cccc5sccc45)CC3)ccc12 ?
Result: 0.5

Q: Could you share which Ki value was measured for O=C1CCc2c(O)ccc(OCCCN3CCN(c4cccc5sccc45)CC3)c2N1 ?
Result: 0.8

Q: Could you share which Ki value was measured for Cc1cccc2cc(OCCCN3CCN(c4cccc5sccc45)CC3)c(=O)[nH]c12 ?
Result: 4.7

* * *

EXPERIMENTAL_SYSTEM: Serotonin 5-HT2A receptor (Rattus norvegicus (Rat), UniProt P14842)
Sequence (P14842 whole entry): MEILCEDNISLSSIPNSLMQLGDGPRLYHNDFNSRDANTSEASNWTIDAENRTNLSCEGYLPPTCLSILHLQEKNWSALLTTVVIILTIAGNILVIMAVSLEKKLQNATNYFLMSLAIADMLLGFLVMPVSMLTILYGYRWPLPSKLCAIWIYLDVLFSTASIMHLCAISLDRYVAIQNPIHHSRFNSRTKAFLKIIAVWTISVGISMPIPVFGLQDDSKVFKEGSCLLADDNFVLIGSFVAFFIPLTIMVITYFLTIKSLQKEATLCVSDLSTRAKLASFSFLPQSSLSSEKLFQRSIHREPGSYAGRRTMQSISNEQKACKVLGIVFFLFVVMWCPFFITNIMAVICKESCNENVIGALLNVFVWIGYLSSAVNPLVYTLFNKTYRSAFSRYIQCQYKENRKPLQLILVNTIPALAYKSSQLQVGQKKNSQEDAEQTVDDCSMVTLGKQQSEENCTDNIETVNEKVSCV
PROTOCOL_DETAILS: Serotonin 5-HT2A receptor binding assay ([3H]-Ketanserin, rat frontal cortex membrane)
MEASUREMENT_PARAMETERS: Ki from IC50 by Cheng-Prussoff formula, hydrochloride
Where a name gives a salt, the structure may show the parent alone.
TEST_READOUT: pKi
The read-out pKi is expressed as -log10 of concentration in moles per litre.

Q: Could you share which pKi value was measured for O=C1CCc2ccc(OCCCCN3CCN(c4cccc5sccc45)CC3)cc2N1 [Example 12, hydrochloride] ?
Result: 8.68

* * *

EXPERIMENTAL_SYSTEM: Serotonin 5-HT2A receptor (Rattus norvegicus (Rat), UniProt P14842)
PROTOCOL_DETAILS: Serotonin 5-HT2A receptor binding assay ([3H]-Ketanserin, rat frontal cortex membrane)
MEASUREMENT_PARAMETERS: Ki from IC50 by Cheng-Prussoff formula
TEST_READOUT: Ki (nM)
The reply should contain only the number, in nM.

INSERT INTO measurements (cpd_smiles, test_readout, meas_value) VALUES
  ('O=C1c2ccccc2CCN1CCCCCN1CCN(c2cccc3sccc23)CC1', 'Ki', 2.3),
  ('O=c1[nH]ccc2cc(OCCCN3CCN(c4cccc5sccc45)CC3)ccc12', 'Ki', 5.1);

Q: Identify the measured Ki of O=C1CCc2cc(OCCCCN3CCN(c4cccc5sccc45)CC3)ccc2N1 for Serotonin 5-HT2A receptor (Rattus norvegicus (Rat), UniProt P14842).
Result: 3.3

Q: Identify the measured Ki of O=c1c2ccccc2ccn1CCCCN1CCN(c2cccc3sccc23)CC1 for Serotonin 5-HT2A receptor (Rattus norvegicus (Rat), UniProt P14842).
Result: 1.5

* * *

EXPERIMENTAL_SYSTEM: Dopamine D2 receptor (Rattus norvegicus (Rat), UniProt P61169)
PROTOCOL_DETAILS: Dopamine D2 receptor binding assay ([3H]-raclopride, rat corpus striatum membrane)
MEASUREMENT_PARAMETERS: Ki from IC50 by Cheng-Prussoff formula
Where a name gives a salt, the structure may show the parent alone.
TEST_READOUT: Ki (nM)
The reply should contain only the number, in nM.

// solved cases for Ki follow
INSERT INTO results (molecule, experimental_system, measure_unit, meas_value) VALUES
  ('O=C1CCc2cc(CO)c(OCCCN3CCN(c4cccc5sccc45)CC3)cc2N1', 'Dopamine D2 receptor (Rattus norvegicus (Rat), UniProt P61169)', 'nM', 0.2),
  ('O=C1CCc2cccc(OCCCCN3CCN(c4cccc5sccc45)CC3)c2N1', 'Dopamine D2 receptor (Rattus norvegicus (Rat), UniProt P61169)', 'nM', 2.3),
  ('O=C1CCc2ccc(OC/C=C\CN3CCN(c4cccc5sccc45)CC3)cc2N1', 'Dopamine D2 receptor (Rattus norvegicus (Rat), UniProt P61169)', 'nM', 2.4),
  ('Cc1cc(=O)[nH]c2ccc(OCCCCN3CCN(c4cccc5sccc45)CC3)cc12', 'Dopamine D2 receptor (Rattus norvegicus (Rat), UniProt P61169)', 'nM', 2.7),
  ('O=c1c2cc(O)ccc2ccn1CCCCN1CCN(c2cccc3sccc23)CC1 [Example 39, hydrobromide]', 'Dopamine D2 receptor (Rattus norvegicus (Rat), UniProt P61169)', 'nM', 1.2);

Q: Identify the measured Ki of CN1CCc2ccc(OCCCCN3CCN(c4cccc5sccc45)CC3)cc2C1=O [Example 32, hydrochloride] for Dopamine D2 receptor (Rattus norvegicus (Rat), UniProt P61169).
Result: 1.5

Q: Identify the measured Ki of Cc1cc2ccc(OCCCN3CCN(c4cccc5sccc45)CC3)cc2[nH]c1=O for Dopamine D2 receptor (Rattus norvegicus (Rat), UniProt P61169).
Result: 0.6

* * *

EXPERIMENTAL_SYSTEM: Serotonin (5-HT) uptake (Rattus norvegicus (Rat), UniProt P31652)
Sequence (P31652 whole entry): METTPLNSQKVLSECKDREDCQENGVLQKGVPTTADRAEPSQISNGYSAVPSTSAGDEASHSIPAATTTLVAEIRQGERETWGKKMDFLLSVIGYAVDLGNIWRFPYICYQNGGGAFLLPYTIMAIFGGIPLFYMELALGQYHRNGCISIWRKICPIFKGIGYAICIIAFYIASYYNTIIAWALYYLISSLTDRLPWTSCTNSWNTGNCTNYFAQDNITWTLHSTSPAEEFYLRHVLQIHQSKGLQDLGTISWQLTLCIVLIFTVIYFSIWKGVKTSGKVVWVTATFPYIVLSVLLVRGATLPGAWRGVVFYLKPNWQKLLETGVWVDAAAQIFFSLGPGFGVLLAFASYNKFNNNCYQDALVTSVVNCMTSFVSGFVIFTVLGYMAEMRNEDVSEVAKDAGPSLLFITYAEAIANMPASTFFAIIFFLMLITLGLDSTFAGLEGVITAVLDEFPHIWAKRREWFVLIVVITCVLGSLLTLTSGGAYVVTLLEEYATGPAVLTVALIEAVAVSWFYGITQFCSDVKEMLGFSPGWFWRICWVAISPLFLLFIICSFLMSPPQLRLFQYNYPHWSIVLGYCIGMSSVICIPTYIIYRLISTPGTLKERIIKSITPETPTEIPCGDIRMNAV
PROTOCOL_DETAILS: Serotonin (5-HT) uptake inhibitory activity by rat brain synaptosome
Format: biochemical
MEASUREMENT_PARAMETERS: test compound 300 nM, rat frontal cortex synaptosome; read-out: Serotonin uptake inhibitory ratio (%) (300 nM)
Parameter inhibition at 0.3 µM: see the listing below.
Write the quantity with the unit trailing the number.

INSERT INTO assay_data (compound, test_readout, meas_value) VALUES
  ('O=C1CCc2cc(OCCCCN3CCN(c4cccc5sccc45)CC3)ccc2N1', 'inhibition at 0.3 µM', '92.8%');

Q: Identify the measured inhibition at 0.3 µM of Cc1cc2ccc(OCCCCN3CCN(c4cccc5sccc45)CC3)cc2[nH]c1=O for Serotonin (5-HT) uptake (Rattus norvegicus (Rat), UniProt P31652).
Result: 91.3%

Q: Identify the measured inhibition at 0.3 µM of O=c1[nH]ccc2cc(OCCCN3CCN(c4cccc5sccc45)CC3)ccc12 for Serotonin (5-HT) uptake (Rattus norvegicus (Rat), UniProt P31652).
Result: 91.6%

Q: Identify the measured inhibition at 0.3 µM of O=C1CCc2ccc(OCCCN3CCN(c4cccc5sccc45)CC3)cc2N1 for Serotonin (5-HT) uptake (Rattus norvegicus (Rat), UniProt P31652).
Result: 92.6%

* * *

EXPERIMENTAL_SYSTEM: Dopamine D2 receptor (Rattus norvegicus (Rat), UniProt P61169)
PROTOCOL_DETAILS: Dopamine D2 receptor binding assay ([3H]-raclopride, rat corpus striatum membrane)
MEASUREMENT_PARAMETERS: Ki from IC50 by Cheng-Prussoff formula
Where a name gives a salt, the structure may show the parent alone.
TEST_READOUT: pKi
The read-out pKi is expressed as -log10 of concentration in moles per litre.

// solved cases for pKi follow
INSERT INTO results (compound, experimental_system, meas_value) VALUES
  ('CCN1CCc2ccc(OCCCN3CCN(c4cccc5sccc45)CC3)cc2C1=O [Example 31, dihydrochloride]', 'Dopamine D2 receptor (Rattus norvegicus (Rat), UniProt P61169)', 8.85),
  ('CC(=O)Nc1ccc(OCCCN2CCN(c3cccc4sccc34)CC2)c2c1NC(=O)CC2', 'Dopamine D2 receptor (Rattus norvegicus (Rat), UniProt P61169)', 8.64),
  ('O=c1ccc2cc(OCCCN3CCN(c4cccc5sccc45)CC3)cc(F)c2[nH]1', 'Dopamine D2 receptor (Rattus norvegicus (Rat), UniProt P61169)', 8.46),
  ('Cc1cc2ccc(OCCCCN3CCN(c4cccc5sccc45)CC3)cc2[nH]c1=O', 'Dopamine D2 receptor (Rattus norvegicus (Rat), UniProt P61169)', 9.10),
  ('O=c1ccc2cccc(OCCCCN3CCN(c4cccc5sccc45)CC3)c2[nH]1', 'Dopamine D2 receptor (Rattus norvegicus (Rat), UniProt P61169)', 8.80);

Q: Identify the measured pKi of O=c1[nH]ccc2cc(OCCCN3CCN(c4cccc5sccc45)CC3)ccc12 for Dopamine D2 receptor (Rattus norvegicus (Rat), UniProt P61169).
Result: 8.32

Q: Identify the measured pKi of Cc1cc(=O)[nH]c2cc(OCCCN3CCN(c4cccc5sccc45)CC3)ccc12 for Dopamine D2 receptor (Rattus norvegicus (Rat), UniProt P61169).
Result: 9.30

Q: Identify the measured pKi of O=C1CCc2ccccc2N1CCCCCN1CCN(c2cccc3sccc23)CC1 [Example 22, hydrochloride] for Dopamine D2 receptor (Rattus norvegicus (Rat), UniProt P61169).
Result: 8.40
